- Test system: PPARg:RXRa IVT, anti-PPARg (NR concentration 270 nM, RXRa partner concentration 90 nM)
- experiment-summary: PBM binding z-score (relative to random genomic background probes); higher = stronger binding; sequences stand for … in GC…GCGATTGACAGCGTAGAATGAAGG
Criterion: PBM binding z-score meeting or surpassing 2. Met: true. Not met: false.

Worked cases, answers included:
# sequence-content, assay-system, class-name
measured = [
    ("CCTACTCGGCCATTCAGAGGTCATTGATCATATG", "PPARg:RXRa IVT, anti-PPARg (NR concentration 270 nM, RXRa partner concentration 90 nM)", "false"),
    ("TAGCCGAGGTCATGGGCCAGTATACCACGCGAAC", "PPARg:RXRa IVT, anti-PPARg (NR concentration 270 nM, RXRa partner concentration 90 nM)", "true"),
    ("CATCCAAGGTCAAGGTCAGTGAAAGAGACTCGAA", "PPARg:RXRa IVT, anti-PPARg (NR concentration 270 nM, RXRa partner concentration 90 nM)", "true"),
    ("CAGCCTAGGTCAAGGCCAGTATAGGAGGAACGTT", "PPARg:RXRa IVT, anti-PPARg (NR concentration 270 nM, RXRa partner concentration 90 nM)", "true"),
    ("TTACCAAAGTGAAGGTCGTTGATCCCTCTGTAGA", "PPARg:RXRa IVT, anti-PPARg (NR concentration 270 nM, RXRa partner concentration 90 nM)", "false"),
]

Quick check: does GCGACTGGGGCATCAGCCGGTTACCATAACTTAA have PBM binding z-score greater than or equal to 2?
true

Quick check: does CAAACTAGGTCACGAAAGGTCCAAGTCGAATGAC have PBM binding z-score greater than or equal to 2?
true

Quick check: does ACTAGCAGGCCAAGTTGGGGTCACTCAAACAAAG have PBM binding z-score greater than or equal to 2?
true

Quick check: does TCTAGTTGGTCAACGGTCACACACTCGAAATGCG have PBM binding z-score greater than or equal to 2?
true

Quick check: does CCTCGGAGGCCAACAGGAGGTCAGAGCTGCCAGA have PBM binding z-score greater than or equal to 2?
false

Quick check: does CCGACTGGGGCATAGGTTACCATACTCAGTACGA have PBM binding z-score greater than or equal to 2?
true

Quick check: does TCTTGTAGATCAAGAAGGTTAAGAAAGCCTGAGT have PBM binding z-score greater than or equal to 2?
false
